Values were extracted from patent US20150203474A1.

- assayText: Solubility of Form A (aliquot addition / slurry, visual)
- Format: physicochemical
- measurementSetup: organic solvent or mixture, thermodynamic from solid; IPA, RT, aliquot addition
- Procedure: Aliquots of various solvents were added to measured amounts of Form A with agitation (typically sonication) at ambient or elevated temperatures until completedissolution was achieved, as judged by visual observation. […] Samples were left to slurry at ambient and elevated temperatures for several days; however, no further dissolution was observed.
property: solubility

The recorded solubility for COC(=O)N[C@H](C(=O)N1CCC[C@H]1c1ncc(-c2ccc3cc(-c4ccc5nc([C@@H]6CCCN6C(=O)[C@@H](NC(=O)OC)C(C)C)[nH]c5c4)ccc3c2)[nH]1)C(C)C [Form A of Compound I] is < 3000 µg/mL

* * *

- assayText: PK study of Form I of Compound II in monkeys
- Format: in vivo
- measurementSetup: male, cynomolgus monkey, plasma, po, 75 mg/kg, PO dose of 75 mg/kg, 2 hr, Mean, read-out: mean plasma concentration
property: concentration at 2 hr (ng/mL)
Expressed in ng/mL, but write only the number.

The recorded concentration at 2 hr for CC[C@H](C)[C@H](NC(=O)OC)C(=O)N1CCC[C@H]1c1nc2ccc(-c3ccc4cc(-c5cnc([C@@H]6CCCN6C(=O)[C@@H](NC(=O)OC)[C@@H](C)OC)[nH]5)ccc4c3)cc2[nH]1 [Form I of Compound II] is 645

* * *

- Test system: HCV genotype 2a replicon
- assayText: HCV replicon assay, GT 2a (luciferase readout)
- Type: cell-based
- measurementSetup: Hepatitis C virus; GT 2a replicon; n > 3
Let's look at some molecules and their measured EC50.
Expressed in nM, but write only the number.

{"structureAsSmiles": "CC[C@H](C)[C@H](NC(=O)OC)C(=O)N1CCC[C@H]1c1nc2ccc(-c3ccc4cc(-c5cnc([C@@H]6CCCN6C(=O)[C@@H](NC(=O)OC)[C@@H](C)OC)[nH]5)ccc4c3)cc2[nH]1", "studySystem": "HCV genotype 2a replicon", "EC50 / nM": 0.11}

Lab note: next molecule to report on.
The recorded EC50 for `COC(=O)N[C@H](C(=O)N1CCC[C@H]1c1ncc(-c2ccc3cc(-c4ccc5nc([C@@H]6CCCN6C(=O)[C@@H](NC(=O)OC)C(C)C)[nH]c5c4)ccc3c2)[nH]1)C(C)C` is 0.139

* * *

- assayText: PK study of Form A of Compound I in rats
- Type: in vivo
- measurementSetup: male, Sprague-Dawley, rat, plasma, po, 75 mg/kg, single PO dose of 75 mg/kg, male SD rats, 6 hr, Rat #1; read-out: plasma concentration
property: concentration at 6 h (ng/mL)
Expressed in ng/mL, but write only the number.

The recorded concentration at 6 h for COC(=O)N[C@H](C(=O)N1CCC[C@H]1c1ncc(-c2ccc3cc(-c4ccc5nc([C@@H]6CCCN6C(=O)[C@@H](NC(=O)OC)C(C)C)[nH]c5c4)ccc3c2)[nH]1)C(C)C [Form A of Compound I] is 2780

* * *

- assayText: Solubility of Form A (aliquot addition / slurry, visual)
- Format: physicochemical
- measurementSetup: organic solvent or mixture, thermodynamic from solid; IPA:tBME (2:1), RT, slurry, 3 days
property: solubility at 3 days

The recorded solubility at 3 days for COC(=O)N[C@H](C(=O)N1CCC[C@H]1c1ncc(-c2ccc3cc(-c4ccc5nc([C@@H]6CCCN6C(=O)[C@@H](NC(=O)OC)C(C)C)[nH]c5c4)ccc3c2)[nH]1)C(C)C [Form A of Compound I] is < 2000 µg/mL

* * *

- assayText: PK study of Form A of Compound I in dogs
- Assay type: in vivo
- measurementSetup: beagle, dog, plasma, po, 75 mg/kg, PO dose of 75 mg/kg, 24 hr, Mean, read-out: mean plasma concentration
property: concentration at 24 hr (ng/mL)
Expressed in ng/mL, but write only the number.

The recorded concentration at 24 hr for COC(=O)N[C@H](C(=O)N1CCC[C@H]1c1ncc(-c2ccc3cc(-c4ccc5nc([C@@H]6CCCN6C(=O)[C@@H](NC(=O)OC)C(C)C)[nH]c5c4)ccc3c2)[nH]1)C(C)C [Form A of Compound I] is 1200

* * *

- assayText: PK study of Form A of Compound I in dogs
- Type: in vivo
- measurementSetup: beagle, dog, plasma, po, 75 mg/kg, PO dose of 75 mg/kg, 2 hr, Mean, read-out: mean plasma concentration
property: concentration at 2 hr (ng/mL)
Expressed in ng/mL, but write only the number.

The recorded concentration at 2 hr for COC(=O)N[C@H](C(=O)N1CCC[C@H]1c1ncc(-c2ccc3cc(-c4ccc5nc([C@@H]6CCCN6C(=O)[C@@H](NC(=O)OC)C(C)C)[nH]c5c4)ccc3c2)[nH]1)C(C)C [Form A of Compound I] is 2690

* * *

- assayText: Solubility of Form I and free base compound 4-3 (visual and HPLC assay of filtrate)
- Assay type: physicochemical
- measurementSetup: 0.1N HCl, simulated gastric fluid, thermodynamic from solid, 0.1N HCl; target conc. 2.0 mg/mL; read-out: Visual Solubility
property: solubility at 24 h

The recorded solubility at 24 h for CC[C@H](C)[C@H](NC(=O)OC)C(=O)N1CCC[C@H]1c1nc2ccc(-c3ccc4cc(-c5cnc([C@@H]6CCCN6C(=O)[C@@H](NC(=O)OC)[C@@H](C)OC)[nH]5)ccc4c3)cc2[nH]1 [Form I of Compound II] is > 2000 µg/mL

* * *

- assayText: PK study of Form A of Compound I in rats
- Type: in vivo
- measurementSetup: male, Sprague-Dawley, rat, plasma, po, 75 mg/kg, single PO dose of 75 mg/kg, male SD rats, 8 hr, Mean (N = 3); read-out: mean plasma concentration
property: concentration at 8 h (ng/mL)
Expressed in ng/mL, but write only the number.

The recorded concentration at 8 h for COC(=O)N[C@H](C(=O)N1CCC[C@H]1c1ncc(-c2ccc3cc(-c4ccc5nc([C@@H]6CCCN6C(=O)[C@@H](NC(=O)OC)C(C)C)[nH]c5c4)ccc3c2)[nH]1)C(C)C [Form A of Compound I] is 531

* * *

- assayText: PK study of Form I of Compound II in monkeys
- Assay type: in vivo
- measurementSetup: male, cynomolgus monkey, plasma, po, 75 mg/kg, PO dose of 75 mg/kg, 0.083 hr, Mean, read-out: mean plasma concentration
property: concentration at 0.083 h (ng/mL)
Expressed in ng/mL, but write only the number.

The recorded concentration at 0.083 h for CC[C@H](C)[C@H](NC(=O)OC)C(=O)N1CCC[C@H]1c1nc2ccc(-c3ccc4cc(-c5cnc([C@@H]6CCCN6C(=O)[C@@H](NC(=O)OC)[C@@H](C)OC)[nH]5)ccc4c3)cc2[nH]1 [Form I of Compound II] is 8.33

* * *

- assayText: PK study of Form A of Compound I in rats
- Type: in vivo
- measurementSetup: male, Sprague-Dawley, rat, plasma, po, 75 mg/kg, single PO dose of 75 mg/kg, male SD rats, 6 hr, Rat #3; read-out: plasma concentration
property: concentration at 6 h (ng/mL)
Expressed in ng/mL, but write only the number.

The recorded concentration at 6 h for COC(=O)N[C@H](C(=O)N1CCC[C@H]1c1ncc(-c2ccc3cc(-c4ccc5nc([C@@H]6CCCN6C(=O)[C@@H](NC(=O)OC)C(C)C)[nH]c5c4)ccc3c2)[nH]1)C(C)C [Form A of Compound I] is 2400

* * *

- assayText: PK study of Form A of Compound I in rats
- Assay type: in vivo
- measurementSetup: male, Sprague-Dawley, rat, plasma, po, 75 mg/kg, single PO dose of 75 mg/kg, male SD rats, 6 hr, Rat #2; read-out: plasma concentration
property: concentration at 6 h (ng/mL)
Expressed in ng/mL, but write only the number.

The recorded concentration at 6 h for COC(=O)N[C@H](C(=O)N1CCC[C@H]1c1ncc(-c2ccc3cc(-c4ccc5nc([C@@H]6CCCN6C(=O)[C@@H](NC(=O)OC)C(C)C)[nH]c5c4)ccc3c2)[nH]1)C(C)C [Form A of Compound I] is 3370

* * *

- assayText: PK study of Form A of Compound I in dogs
- Assay type: in vivo
- measurementSetup: beagle, dog, plasma, po, 75 mg/kg, PO dose of 75 mg/kg, 4 hr, Mean, read-out: mean plasma concentration
property: concentration at 4 hr

The recorded concentration at 4 hr for COC(=O)N[C@H](C(=O)N1CCC[C@H]1c1ncc(-c2ccc3cc(-c4ccc5nc([C@@H]6CCCN6C(=O)[C@@H](NC(=O)OC)C(C)C)[nH]c5c4)ccc3c2)[nH]1)C(C)C [Form A of Compound I] is 2310 ng/mL

* * *

- assayText: Solubility of Form I and free base compound 4-3 (visual and HPLC assay of filtrate)
- Format: physicochemical
- measurementSetup: pH 2 medium, pH 2, simulated gastric fluid, thermodynamic from solid, pH 2 medium; target conc. 2.0 mg/mL; read-out: Visual Solubility
property: solubility at 24 h

The recorded solubility at 24 h for CC[C@H](C)[C@H](NC(=O)OC)C(=O)N1CCC[C@H]1c1nc2ccc(-c3ccc4cc(-c5cnc([C@@H]6CCCN6C(=O)[C@@H](NC(=O)OC)[C@@H](C)OC)[nH]5)ccc4c3)cc2[nH]1 [Form I of Compound II] is > 2000 µg/mL
